Test Description: complexation of ligands with ^89Zr, yield by ITLC-SG
Assay type: physicochemical
Conditions: 50° C., 30 min; 7.5 nmol ligand, pH 7
# complexation yield of ^89Zr listing for each entry below
Report the figure in % without appending any unit label.

Field: example entries. Status: answers known.
{"columns": ["Molecule", "Value Unit", "complexation yield of ^89Zr"],
 "data": [
  ["CCCCC(=O)N(O)CCCCCC(=O)N(O)CCCCCC(=O)N(O)CCCCCC(=O)N(O)CCC [Ligand L5]", "%", 73],
  ["CCCCCC(=O)N(O)CCCCCCC(=O)N(O)CCCCCCC(=O)N(O)CCCCCCC(=O)N(O)CCC [Ligand L6]", "%", 96]
]}

Here is the next item to consider.
Q: Return the recorded complexation yield of ^89Zr value; entry: O=C1CCCCCN(O)C(=O)CCCCCN(O)C(=O)CCCCCN(O)C(=O)CCCCCN1O [Ligand C5]
Result: 23
